Each recorded value in this set is attributed to patent US11236052B2.

assay: S9 in vitro half-life; format: in vitro ADME; conditions: S9 fraction
Answer each item with its documented half-life.
Numeric answer only, unit h assumed.

# input compound: O=C(NO)c1ccc(Nc2nc3ccccc3n2C2CCCCCC2)cc1 ; wanted: its half-life
1.22

Any idea what its half-life is? The compound is O=C(NO)c1ccc(Nc2nc3ccccc3n2CC2CCCCC2)cc1
1.25

====

Provide the reported AUC(0-t) of each item.
test: Pharmacokinetic studies in the mouse; type: in vivo; conditions: plasma, 5.0 mg/kg PO
Respond with the bare value in ng·h/mL.

Please look up its AUC(0-t): O=C(NO)c1ccc(Nc2nc3ccccc3n2C2CCCCC2)cc1 [ID #2]
1280

AUC(0-t) lookup needed for O=C(NO)c1ccc(Nc2nc3ccccc3n2C2CCCCCC2)cc1 [ID #3] , thanks.
1640

Recorded AUC(0-t) for O=C(NO)c1ccc(Nc2nc3ccccc3n2CC2CCCCC2)cc1 [ID #1] , please?
3220

====

test system: SUDHL-4; test: CellTiter-Glo cell viability assay, SUDHL-4; type: cell-based; settings: Homo sapiens, SU-DHL-4; Lymphoma, SUDHL-4, 72 hours
Please provide measured pIC50 for the entries that follow.
Scale for pIC50: -log10 of concentration given in mol/L; no unit attached.

Consider the compound shown here: O=C(NO)c1ccc(Nc2nc3ccccc3n2C2CCCCCC2)cc1 What is its recorded pIC50?
5.38

Reported pIC50, compound O=C(NO)c1ccc(Nc2nc3ccccc3n2CC2CCCCC2)cc1 : ____
6.62

====

test: % PPB, human; type: in vitro ADME; conditions: plasma; human (hu)
For each record, write down the corresponding fraction unbound.
The reply should be a number, written without any unit.

fraction unbound lookup needed for O=C(NO)c1ccc(Nc2nc3ccccc3n2CC2CCCCC2)cc1 , thanks.
0.0056

Recorded fraction unbound of O=C(NO)c1ccc(Nc2nc3ccccc3n2C2CCCCCC2)cc1 , please.
0.0064

====

Field: pIC50. Provide a value for each of the molecules that follow.
test system: GIST882; assay: CellTiter-Glo cell viability assay, GIST882; type: cell-based; details: Homo sapiens; GIST, GIST882, 72 hours
Quick note: pIC50 values are minus log10 of concentrations in mol/L.

Form field: reported pIC50 of O=C(NO)c1ccc(Nc2nc3ccccc3n2CC2CCCCC2)cc1
5.24

I have this molecule here, O=C(NO)c1ccc(Nc2nc3ccccc3n2C2CCCCCC2)cc1 , and I need its recorded pIC50.
4.75

====

Task for the reader: assign each of the following molecules its reported half-life.
assay: Pharmacokinetic studies in the mouse; format: in vivo; conditions: plasma, 5.0 mg/kg PO, read-out: Half-life (converted)
The figure you give is taken to be in min; do not add the unit.

Reported half-life for O=C(NO)c1ccc(Nc2nc3ccccc3n2C2CCCCCC2)cc1 : what is it?
179

Given the molecule O=C(NO)c1ccc(Nc2nc3ccccc3n2CC2CCCCC2)cc1 , what is its reported half-life?
203

Given the molecule O=C(NO)c1ccc(Nc2nc3ccccc3n2C2CCCCC2)cc1 , what is its reported half-life?
154

====

System: RS4-11
Assay: CellTiter-Glo cell viability assay, RS4-11
Type: cell-based
Conditions: Homo sapiens; ALL, RS4-11, 72 hours
Description: Cell Viability Assay—Cell viability was measured by the CellTiter-Glo® cell viability assay Promega (Madison, Wis.). The CellTiter-Glo® Luminescent Cell Viability Assay is a homogeneous method to determine the number of viable cells in culture based on quantitation of the ATP present, which signals the presence of metabolically active cells. […] Where ftest is the luminescence of the tested sample, and fvehicle is the luminescence of the vehicle in which the drug is dissolved. […]
Field: IC50. Provide a value for each of the compounds that follow.
# value in nM; strip the unit string

Notebook: pull reported IC50 for RS4-11, entry O=C(NO)c1ccc(Nc2nc3ccccc3n2CC2CCCCC2)cc1 [ID #1]
1100

Enter reported IC50 observed with RS4-11 for O=C(NO)c1ccc(Nc2nc3ccccc3n2C2CCCCCC2)cc1 [ID #3]
2440
